System: Staphylococcus aureus
Assay: Antibacterial activity against methicillin-resistant Staphylococcus aureus clinical isolate MRSA-22 measured after 16 to 18 hrs by CLSI method
Format: functional
Settings: time 16-18 hrs
measurement.type: MIC (µg/mL)
Record the value in µg/mL, omitting the unit from your answer.

Task item: Recorded MIC for CCCN(CCC)CCCOc1ccc(C2CC(=O)c3c(OC)cc(OCCCN(CCC)CCC)c(CC=C(C)C)c3O2)cc1 (configuration not stated) , please?
Reply: 16

Task item: Recorded MIC for COc1cc(OCCCN2CCC(C)CC2)c(CC=C(C)C)c2c1C(=O)CC(c1ccc(OCCCN3CCC(C)CC3)cc1)O2 (configuration not stated) , please?
Reply: 16

Task item: Recorded MIC for COc1cc(OCCCCN2CCCC(C)C2)c(CC=C(C)C)c2c1C(=O)CC(c1ccc(OCCCCN3CCCC(C)C3)cc1)O2 (configuration not stated) , please?
Reply: 8

Task item: Recorded MIC for COc1cc(OCCCCCN2CCCCC2)c(CC=C(C)C)c2c1C(=O)CC(c1ccc(OCCCCCN3CCCCC3)cc1)O2 (configuration not stated) , please?
Reply: 8

Task item: Recorded MIC for CCCC[N+](C)(CCCC)CCCCOc1ccc(C2CC(=O)c3c(OC)cc(OCCCC[N+](C)(CCCC)CCCC)c(CC=C(C)C)c3O2)cc1.[I-].[I-] (configuration not stated) , please?
Reply: 1

* * *

Experiment: Selectivity index, ratio of HC50 for hemolytic activity in sheep erythrocytes to MIC for antibacterial activity against Staphylococcus aureus ATCC 29213
Type: toxicity, cell-based
Conditions: read-out: Selectivity Index
measurement.type: selectivity ratio

Task item: Recorded selectivity ratio for COc1cc(OCCCN2CCCCC2C)c(CC=C(C)C)c2c1C(=O)CC(c1ccc(OCCCN3CCCCC3C)cc1)O2 (configuration not stated) , please?
Reply: > 40

Task item: Recorded selectivity ratio for COc1cc(OCCCN2CCCCC2)c(CC=C(C)C)c2c1C(=O)CC(c1ccc(OCCCN3CCCCC3)cc1)O2 (configuration not stated) , please?
Reply: 7.3

Task item: Recorded selectivity ratio for COc1cc(OCCCCCN2CCN(C)CC2)c(CC=C(C)C)c2c1C(=O)CC(c1ccc(OCCCCCN3CCN(C)CC3)cc1)O2 (configuration not stated) , please?
Reply: > 80

Task item: Recorded selectivity ratio for CCCN(CCC)CCCOc1ccc(C2CC(=O)c3c(OC)cc(OCCCN(CCC)CCC)c(CC=C(C)C)c3O2)cc1 (configuration not stated) , please?
Reply: > 80

Task item: Recorded selectivity ratio for COc1cc(OCCCCCN2CCSCC2)c(CC=C(C)C)c2c1C(=O)CC(c1ccc(OCCCCCN3CCSCC3)cc1)O2 (configuration not stated) , please?
Reply: > 20

Task item: Recorded selectivity ratio for COc1cc(OCCCCCN2CCC(C)CC2)c(CC=C(C)C)c2c1C(=O)CC(c1ccc(OCCCCCN3CCC(C)CC3)cc1)O2 (configuration not stated) , please?
Reply: > 160

Task item: Recorded selectivity ratio for CCCN(CCC)CCCCCOc1ccc(C2CC(=O)c3c(OC)cc(OCCCCCN(CCC)CCC)c(CC=C(C)C)c3O2)cc1 (configuration not stated) , please?
Reply: 41.4

Task item: Recorded selectivity ratio for CCCC[N+](C)(CCCC)CCCCCOc1ccc(C2CC(=O)c3c(OC)cc(OCCCCC[N+](C)(CCCC)CCCC)c(CC=C(C)C)c3O2)cc1.[I-].[I-] (configuration not stated) , please?
Reply: > 1280

Task item: Recorded selectivity ratio for CCCC[N+](C)(CCCC)CCCCOc1ccc(C2CC(=O)c3c(OC)cc(OCCCC[N+](C)(CCCC)CCCC)c(CC=C(C)C)c3O2)cc1.[I-].[I-] (configuration not stated) , please?
Reply: > 2640

Task item: Recorded selectivity ratio for COc1cc(OCCCCN2CCN(C)CC2)c(CC=C(C)C)c2c1C(=O)CC(c1ccc(OCCCCN3CCN(C)CC3)cc1)O2 (configuration not stated) , please?
Reply: > 40

Task item: Recorded selectivity ratio for COc1cc(OCCCCN2CCCCC2)c(CC=C(C)C)c2c1C(=O)CC(c1ccc(OCCCCN3CCCCC3)cc1)O2 (configuration not stated) , please?
Reply: > 6.2

Task item: Recorded selectivity ratio for CCCN(CCC)CCCCOc1ccc(C2CC(=O)c3c(OC)cc(OCCCCN(CCC)CCC)c(CC=C(C)C)c3O2)cc1 (configuration not stated) , please?
Reply: > 80

Task item: Recorded selectivity ratio for CCCCN(CCCC)CCCOc1ccc(C2CC(=O)c3c(OC)cc(OCCCN(CCCC)CCCC)c(CC=C(C)C)c3O2)cc1 (configuration not stated) , please?
Reply: 101

Task item: Recorded selectivity ratio for CCCCN(CCCC)CCCCOc1ccc(C2CC(=O)c3c(OC)cc(OCCCCN(CCCC)CCCC)c(CC=C(C)C)c3O2)cc1 (configuration not stated) , please?
Reply: 300

Task item: Recorded selectivity ratio for COc1cc(OCCCN2CCC(C)CC2)c(CC=C(C)C)c2c1C(=O)CC(c1ccc(OCCCN3CCC(C)CC3)cc1)O2 (configuration not stated) , please?
Reply: > 80

Task item: Recorded selectivity ratio for COc1cc(OCCCCCN2CCCCC2C)c(CC=C(C)C)c2c1C(=O)CC(c1ccc(OCCCCCN3CCCCC3C)cc1)O2 (configuration not stated) , please?
Reply: 9.1

Task item: Recorded selectivity ratio for COc1cc(OCCCCCN2CCOCC2)c(CC=C(C)C)c2c1C(=O)CC(c1ccc(OCCCCCN3CCOCC3)cc1)O2 (configuration not stated) , please?
Reply: > 80

Task item: Recorded selectivity ratio for CCCCN(CCCC)CCCCCOc1ccc(C2CC(=O)c3c(OC)cc(OCCCCCN(CCCC)CCCC)c(CC=C(C)C)c3O2)cc1 (configuration not stated) , please?
Reply: 245

Task item: Recorded selectivity ratio for COc1cc(OCCCN2CCCC(C)C2)c(CC=C(C)C)c2c1C(=O)CC(c1ccc(OCCCN3CCCC(C)C3)cc1)O2 (configuration not stated) , please?
Reply: > 80

Task item: Recorded selectivity ratio for COc1cc(OCCCCN2CCC(C)CC2)c(CC=C(C)C)c2c1C(=O)CC(c1ccc(OCCCCN3CCC(C)CC3)cc1)O2 (configuration not stated) , please?
Reply: > 40

Task item: Recorded selectivity ratio for COc1cc(OCCCCN2CCOCC2)c(CC=C(C)C)c2c1C(=O)CC(c1ccc(OCCCCN3CCOCC3)cc1)O2 (configuration not stated) , please?
Reply: > 20

Task item: Recorded selectivity ratio for COc1cc(OCCCCN2CCCCC2C)c(CC=C(C)C)c2c1C(=O)CC(c1ccc(OCCCCN3CCCCC3C)cc1)O2 (configuration not stated) , please?
Reply: > 8.6

Task item: Recorded selectivity ratio for COc1cc(OCCCCN2CCSCC2)c(CC=C(C)C)c2c1C(=O)CC(c1ccc(OCCCCN3CCSCC3)cc1)O2 (configuration not stated) , please?
Reply: > 10

Task item: Recorded selectivity ratio for COc1cc(OCCCCN2CCCC(C)C2)c(CC=C(C)C)c2c1C(=O)CC(c1ccc(OCCCCN3CCCC(C)C3)cc1)O2 (configuration not stated) , please?
Reply: > 7.5

Task item: Recorded selectivity ratio for COc1cc(OCCCCCN2CCCC(C)C2)c(CC=C(C)C)c2c1C(=O)CC(c1ccc(OCCCCCN3CCCC(C)C3)cc1)O2 (configuration not stated) , please?
Reply: 13.2

Task item: Recorded selectivity ratio for COc1cc(OCCCN2CCN(C)CC2)c(CC=C(C)C)c2c1C(=O)CC(c1ccc(OCCCN3CCN(C)CC3)cc1)O2 (configuration not stated) , please?
Reply: > 20

Task item: Recorded selectivity ratio for COc1cc(OCCCCCN2CCCCC2)c(CC=C(C)C)c2c1C(=O)CC(c1ccc(OCCCCCN3CCCCC3)cc1)O2 (configuration not stated) , please?
Reply: 18.9
